# Ki listing for each entry below
- measurement-target: UniProt:P20309
- assay-method-text: Radioligand binding assay for muscarinic receptors ([3H]-NMS displacement, CHO cell membranes)
Write down the numeric answer in nM and omit the unit.

Guide cases for Ki, answers given:
compound	observed-result
Cc1cc(CNC[C@H](O)c2ccc(O)c3[nH]c(=O)ccc23)ccc1NC(=O)CCCCN(C)C(=O)CCN1CCC(OC(=O)Nc2ccccc2-c2ccccc2)CC1	0.1
CC(Cc1cccc(CC(=O)Nc2cccc(N(C)C(=O)CCN3CCC(OC(=O)Nc4ccccc4-c4ccccc4)CC3)c2)c1)NC[C@H](O)c1ccc(O)c2[nH]c(=O)ccc12 (some centres unmarked)	0.2
C[C@H](Cc1cccc(CC(=O)NCCCN(C)C(=O)CCN2CCC(OC(=O)Nc3ccccc3-c3ccccc3)CC2)c1)NC[C@H](O)c1ccc(O)c2[nH]c(=O)ccc12	0.1

(Q) Using the record for CC(Cc1cccc(CNC(=O)c2cccc(N(C)C(=O)CCN3CCC(OC(=O)Nc4ccccc4-c4ccccc4)CC3)c2)c1)NC[C@H](O)c1ccc(O)c2[nH]c(=O)ccc12 (some centres unmarked) , report its Ki.
(A) 0.1

(Q) What Ki value was documented for this compound, CC(Cc1cccc(CC(=O)NCc2ccc(N(C)C(=O)CCN3CCC(OC(=O)Nc4ccccc4-c4ccccc4)CC3)cc2)c1)NC[C@H](O)c1ccc(O)c2[nH]c(=O)ccc12 (some centres unmarked) ?
(A) 0.1

----------
Each record here notes measured Ki.
- measurement-target: UniProt:P20309
- assay-method-text: Radioligand binding assay for muscarinic receptors ([3H]-NMS displacement, CHO cell membranes)
Could you give me the number in nM? Just the number is fine.

Known results for molecules:
molecule	measurement-target	unit-annotation	Ki
Cc1c(CNC(=O)Cc2ccc(N(C)C(=O)CCN3CCC(OC(=O)Nc4ccccc4-c4ccccc4)CC3)cc2)cccc1CC(C)NC[C@H](O)c1ccc(O)c2[nH]c(=O)ccc12 (stereo partly drawn)	UniProt:P20309	nM	0.1
CN(C(=O)CCN1CCC(OC(=O)Nc2ccccc2-c2ccccc2)CC1)c1cccc(C(=O)Nc2cccc(CCNC[C@H](O)c3ccc(O)c4[nH]c(=O)ccc34)c2)c1	UniProt:P20309	nM	0.1

// next item, Ki requested
(Q) Can you look up the measured Ki of `Cc1ccc(C(=O)Nc2cccc(CCNC[C@H](O)c3ccc(O)c4[nH]c(=O)ccc34)c2)cc1N(C)C(=O)CCN1CCC(OC(=O)Nc2ccccc2-c2ccccc2)CC1` for me?
(A) 0.2

----------
- measurement-target: hβ2 adrenergic receptor (Homo sapiens (Human), UniProt P07550)
- Sequence (P07550 whole entry): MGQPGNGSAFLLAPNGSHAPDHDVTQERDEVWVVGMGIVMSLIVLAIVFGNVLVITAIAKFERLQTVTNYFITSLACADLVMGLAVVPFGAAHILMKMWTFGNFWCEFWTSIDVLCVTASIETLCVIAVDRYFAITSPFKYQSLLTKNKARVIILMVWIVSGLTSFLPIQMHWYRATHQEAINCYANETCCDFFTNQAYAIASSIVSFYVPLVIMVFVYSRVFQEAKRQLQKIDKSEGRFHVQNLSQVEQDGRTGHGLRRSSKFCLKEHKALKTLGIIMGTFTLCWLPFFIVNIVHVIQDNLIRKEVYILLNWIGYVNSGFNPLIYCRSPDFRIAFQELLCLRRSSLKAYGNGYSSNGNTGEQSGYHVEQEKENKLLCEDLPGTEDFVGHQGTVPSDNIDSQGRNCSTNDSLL
- assay-method-text: Assay for determining adrenergic receptor agonist potency (cAMP Flashplate, HEK-293 cells)
- test-conditions: data rounded to nearest 1 nM
Listed here: items and their measured EC50.
Write the answer as a number in nM, unit excluded.

Examples with answers:
compound	unit-annotation	EC50
Cc1cc(CNC[C@H](O)c2ccc(O)c3[nH]c(=O)ccc23)ccc1NC(=O)CCCCN(C)C(=O)CCN1CCC(OC(=O)Nc2ccccc2-c2ccccc2)CC1 [Compound I-15]	nM	1
C[C@@H](Cc1cccc(CCC(=O)NCc2ccc(N(C)C(=O)CCN3CCC(OC(=O)Nc4ccccc4-c4ccccc4)CC3)cc2)c1)NC[C@H](O)c1ccc(O)c2[nH]c(=O)ccc12 [Compound I-93]	nM	11
C[C@@H](Cc1cccc(CCNC(=O)c2ccc(N(C)C(=O)CCN3CCC(OC(=O)Nc4ccccc4-c4ccccc4)CC3)cc2)c1)NC[C@H](O)c1ccc(O)c2[nH]c(=O)ccc12 [Compound I-56]	nM	1
CN(C(=O)CCN1CCC(OC(=O)Nc2ccccc2-c2ccccc2)CC1)c1cccc(C(=O)Nc2cccc(CCNC[C@H](O)c3ccc(O)c4[nH]c(=O)ccc34)c2)c1 [Compound I-32]	nM	1

Could you now consider this next compound?
(Q) For the compound shown here, CN(C(=O)CCN1CCC(OC(=O)Nc2ccccc2-c2ccccc2)CC1)c1ccc(CNC(=O)CCc2cccc(CNC[C@H](O)c3ccc(O)c4[nH]c(=O)ccc34)c2)cc1 [Compound I-96] , give the reported EC50.
(A) 3

----------
- measurement-target: hM3 muscarinic receptor (Homo sapiens (Human))
- assay-method-text: Radioligand binding assay for muscarinic receptors ([3H]-NMS displacement, CHO cell membranes)
- test-conditions: hM3 Muscarinic Receptor Binding; data rounded to nearest 0.1 nM
Below, each entry is listed alongside its reported pKi.
The scale used: pKi is minus the common logarithm of the concentration in molar units.

Below, 3 molecules whose answers are already recorded.
molecule	observed-result
COc1cc(CNC[C@H](O)c2ccc(O)c3[nH]c(=O)ccc23)ccc1NC(=O)CCCN(C)C(=O)CCN1CCC(OC(=O)Nc2ccccc2-c2ccccc2)CC1	10.00
COc1ccc(CC(=O)NCc2ccc(N(C)C(=O)CCN3CCC(OC(=O)Nc4ccccc4-c4ccccc4)CC3)cc2)cc1CC(C)NC[C@H](O)c1ccc(O)c2[nH]c(=O)ccc12 (stereo partly shown)	10.00
CN(C(=O)CCN1CCC(OC(=O)Nc2ccccc2-c2ccccc2)CC1)c1ccc(CNC(=O)Cc2cccc(CNC[C@H](O)c3ccc(O)c4[nH]c(=O)ccc34)c2)cc1	9.52

Field: next molecule
(Q) For the record `COc1cc(CNC[C@H](O)c2ccc(O)c3[nH]c(=O)ccc23)ccc1NC(=O)c1cccc(N(C)C(=O)CCN2CCC(OC(=O)Nc3ccccc3-c3ccccc3)CC2)c1` , what value of pKi is listed for hM3 muscarinic receptor (Homo sapiens (Human))?
(A) 10.00

----------
- measurement-target: hβ2 adrenergic receptor (Homo sapiens (Human), UniProt P07550)
- assay-method-text: Assay for determining adrenergic receptor agonist potency (cAMP Flashplate, HEK-293 cells)
- test-conditions: data rounded to nearest 1 nM
property-name: EC50 (nM)
Hi! Could you send only the number? It should be in nM, unit omitted.

Sample answers from the record:
compound	unit-annotation	EC50
Cc1c(CNC(=O)Cc2ccc(N(C)C(=O)CCN3CCC(OC(=O)Nc4ccccc4-c4ccccc4)CC3)cc2)cccc1CC(C)NC[C@H](O)c1ccc(O)c2[nH]c(=O)ccc12 (stereo partly drawn)	nM	1
CN(C(=O)CCN1CCC(OC(=O)Nc2ccccc2-c2ccccc2)CC1)c1cccc(C(=O)Nc2ccc(CNC[C@H](O)c3ccc(O)c4[nH]c(=O)ccc34)cc2)c1	nM	1

// next entry
(Q) Can you share its EC50? I mean this compound: `C[C@H](Cc1cccc(CC(=O)NCc2ccc(N(C)C(=O)CCN3CCC(OC(=O)Nc4ccccc4-c4ccccc4)CC3)cc2)c1)NC[C@H](O)c1ccc(O)c2[nH]c(=O)ccc12`
(A) 1

----------
- measurement-target: hβ2 adrenergic receptor (Homo sapiens (Human))
- assay-method-text: Assay for determining adrenergic receptor agonist potency (cAMP Flashplate, HEK-293 cells)
- test-conditions: data rounded to nearest 1 nM
property-name: EC50 (nM)
Provide only the numeric value, understood in nM.

See these solved cases before continuing.
compound	EC50 / nM
COc1ccc(NC(=O)CCCN(C)C(=O)CCN2CCC(OC(=O)Nc3ccccc3-c3ccccc3)CC2)cc1CCNC[C@H](O)c1ccc(O)c2[nH]c(=O)ccc12 [Compound I-9]	6
COc1cc(NC(=O)CCCCN(C)C(=O)CCN2CCC(OC(=O)Nc3ccccc3-c3ccccc3)CC2)c(Cl)cc1CNC[C@H](O)c1ccc(O)c2[nH]c(=O)ccc12 [Compound I-19]	1
Cc1ccc(C(=O)NCc2ccc(CC(C)NC[C@H](O)c3ccc(O)c4[nH]c(=O)ccc34)cc2)cc1N(C)C(=O)CCN1CCC(OC(=O)Nc2ccccc2-c2ccccc2)CC1 (some centres unmarked) [Compound I-47]	3
COc1cc(CNC[C@H](O)c2ccc(O)c3[nH]c(=O)ccc23)ccc1NC(=O)CCCCN(C)C(=O)CCN1CCC(OC(=O)Nc2ccccc2-c2ccccc2)CC1 [Compound I-16]	1

Next compound, EC50 to be filled in.
(Q) Sample CC(Cc1ccc(CNC(=O)Cc2ccc(N(C)C(=O)CCN3CCC(OC(=O)Nc4ccccc4-c4ccccc4)CC3)cc2)cc1)NC[C@H](O)c1ccc(O)c2[nH]c(=O)ccc12 (some centres unmarked) [Compound I-67] — what was its EC50?
(A) 1

----------
- measurement-target: hM3 muscarinic receptor (Homo sapiens (Human), UniProt P20309)
- Sequence (P20309 whole entry): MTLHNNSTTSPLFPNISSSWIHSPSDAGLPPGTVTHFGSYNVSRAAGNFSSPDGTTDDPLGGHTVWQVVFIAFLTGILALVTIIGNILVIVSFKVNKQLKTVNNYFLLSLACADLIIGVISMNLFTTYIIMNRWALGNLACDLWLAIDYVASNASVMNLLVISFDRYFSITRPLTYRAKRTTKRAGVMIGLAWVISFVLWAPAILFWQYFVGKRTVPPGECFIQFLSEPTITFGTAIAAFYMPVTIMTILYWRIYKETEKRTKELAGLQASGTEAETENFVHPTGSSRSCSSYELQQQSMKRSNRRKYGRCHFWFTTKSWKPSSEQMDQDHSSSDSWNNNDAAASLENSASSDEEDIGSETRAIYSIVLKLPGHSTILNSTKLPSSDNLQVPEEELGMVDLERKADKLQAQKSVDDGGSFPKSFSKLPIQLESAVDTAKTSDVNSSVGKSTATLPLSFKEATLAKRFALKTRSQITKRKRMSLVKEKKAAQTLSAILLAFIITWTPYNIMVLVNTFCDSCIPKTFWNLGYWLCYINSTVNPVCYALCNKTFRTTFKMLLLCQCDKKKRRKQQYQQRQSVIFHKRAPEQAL
- assay-method-text: Radioligand binding assay for muscarinic receptors ([3H]-NMS displacement, CHO cell membranes)
Attribute: Ki
Report the figure in nM without appending any unit label.

See these solved cases before continuing.
compound	property-name	observed-result
COc1cc(NC(=O)CCCCN(C)C(=O)CCN2CCC(OC(=O)Nc3ccccc3-c3ccccc3)CC2)ccc1CNC[C@H](O)c1ccc(O)c2[nH]c(=O)ccc12	Ki	0.1
CC(Cc1cccc(NC(=O)c2cccc(N(C)C(=O)CCN3CCC(OC(=O)Nc4ccccc4-c4ccccc4)CC3)c2)c1)NC[C@H](O)c1ccc(O)c2[nH]c(=O)ccc12 (stereo partly drawn)	Ki	0.2

Attention now shifts to the item below.
(Q) What Ki value was documented for this compound, `C[C@H](Cc1ccc(CCNC(=O)Cc2ccc(N(C)C(=O)CCN3CCC(OC(=O)Nc4ccccc4-c4ccccc4)CC3)cc2)cc1)NC[C@H](O)c1ccc(O)c2[nH]c(=O)ccc12` ?
(A) 0.1
